System: CCRIS mutagenicity, Ames/micronucleus/aberration tests
Experiment: CCRIS mutagenicity studies
Details: Test System: AMES SALMONELLA TYPHIMURIUM; Strain/Indicator: TA98; Metabolic Activation: NONE; Method: PREINCUBATION
From the text: The CCRIS database contains chemical records with carcinogenicity, mutagenicity, tumor promotion, and tumor inhibition test results. It was developed by the National Cancer Institute (NCI). Data are derived from studies cited in primary journals, current awareness tools, NCI reports, and other sources. Test results have been reviewed by experts in carcinogenesis and mutagenesis. CCRIS provides historical information from the years 1985 - 2011. It is no longer updated. […]
Calls of active or inactive are those of the source. How the calls were made is not given here.
# valid calls are yes (1) = active, no (0) = inactive; nothing else

Answered examples (2):
# Compound, Test target, Discrete label
measured = [
    ("Nc1cc(S(=O)(=O)O)ccc1O", "CCRIS mutagenicity, Ames/micronucleus/aberration tests", "no (0)"),
    ("O=C(Cl)CCc1ccccc1", "CCRIS mutagenicity, Ames/micronucleus/aberration tests", "yes (1)"),
]

Record lookup: outcome of this test for CN1C(=O)C(O)CC1c1cccnc1 (stereo not drawn) ? no (0)

Give the logged outcome of this assay for the following compound: `COC(=O)/C(C#N)=C/c1ccc(Br)o1` no (0)

Recorded call for CCNC(=O)Nc1ccc(OCC(O)CNC(C)(C)C)c(C(C)=O)c1 (stereo not drawn) ? no (0)

Hi team, can someone confirm the assay call for `NC(N)=NC(=O)c1nc(Cl)c(N)nc1N` ? no (0)

Assay outcome for `O=[N+]([O-])N(c1ccccn1)S(=O)(=O)c1ccccc1` : what was it? no (0)

Hi, do you know how `O=C1c2ccccc2-c2c3c(cc4ccnc1c24)OCO3` came out in this test? no (0)

Record request — test call for `NC=O` no (0)

Please state the recorded outcome for this compound: `Nc1c(Br)cc(Br)c2c1C(=O)c1ccccc1C2=O` yes (1)

Test call, this compound: `CCNC(=O)/C=C/c1ccc([N+](=O)[O-])o1` yes (1)

Just for reference, PubChem BioAssay AID1259407 is where these values come from.
